Target: LdcCA (Leishmania infantum)
Construct: gene LINJ_06_0630; organism given as Leishmania donovani chagasi
Sequence (A4HSV2 1-306): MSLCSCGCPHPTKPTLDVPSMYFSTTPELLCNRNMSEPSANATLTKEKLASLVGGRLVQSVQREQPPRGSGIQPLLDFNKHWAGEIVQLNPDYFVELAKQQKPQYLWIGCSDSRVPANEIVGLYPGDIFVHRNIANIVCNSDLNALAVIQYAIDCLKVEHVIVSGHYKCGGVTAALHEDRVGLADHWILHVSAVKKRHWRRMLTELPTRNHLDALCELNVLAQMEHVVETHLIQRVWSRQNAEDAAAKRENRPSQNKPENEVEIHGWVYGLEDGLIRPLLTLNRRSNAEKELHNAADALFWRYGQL
Experiment: stopped-flow CO2 hydrase assay
Format: biochemical
Settings: 20 mM TRIS pH 8.3, 20 mM Na2SO4, CO2 1.7-17 mM, 15 min preincubation at room temperature
quantity_measured: Ki (µM)
Please state the figure in µM; there is no need to write the unit.

Observe how each entry below is paired with its result.
>>> df
                                   molecule  quantity_measured  measured_result
0  O=C(Nc1ccc(C(F)(F)F)cc1)Nc1ccc2c(c1)B(O)OC2 [compound 10, 10]                 Ki             2.59
1  Cc1cc(Cl)cc(CNC(=O)Nc2ccc3c(c2)B(O)OC3)c1 [compound 5, 5]                 Ki              4.3
2  OB1OCc2ccc(NC(=S)Nc3ccc(F)cc3)cc21 [compound 20, 20]                 Ki             0.66
3  O=C(Nc1ccc(F)cc1)Nc1ccc2c(c1)B(O)OC2 [compound 9, 9]                 Ki             0.78
4  OB1OCc2ccc(NC(=S)NCc3ccccc3)cc21 [compound 19, 19]                 Ki             4.37

Record OB1OCc2ccc(NC(=S)Nc3ccc4ccccc4c3)cc21 [compound 16, 16] , field Ki: 3.06

# Ki of O=C(NCc1ccco1)Nc1ccc2c(c1)B(O)OC2 [compound 8, 8] = 3.54

Reported Ki ( OB1OCc2cc(F)ccc21 [Tavaborole, reference compound] ) = 2.54

Kindly note the recorded Ki for COc1ccc(NC(=S)Nc2ccc3c(c2)B(O)OC3)cc1 [compound 17, 17] , which is 0.59

Numbers sourced from paper PMC6009872.
